These measurements were taken from PubChem BioAssay AID1963845.

- Test system: 429239-143-T-J1-PDC complex spheroid viability;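 further: luminescence signal used as surrogate measure of viable cells; spheroids exposed to compounds for seven days before readout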
- Protocol details: Anticancer human tumor 429239-143-T-J1-PDC patient-derived small cell lung carcinoma cell line growth inhibition [POLQ]
- Assay setup: second compound 0.0316 µM; first compound 0.316 µM; hits give low values
# note: exactly 90% is not below, so it is rule not met; use rule met for viability, T/C strictly under it

// below: answered compounds
{"columns": ["Compound", "Class assignment"],
 "data": [
  ["C=CC(=O)N1CCN(c2nc(=O)n(-c3c(C)ccnc3C(C)C)c3nc(-c4c(O)cccc4F)c(F)cc23)C(C)C1 (stereo not given) + Cc1cccc(N(C)C(=O)C2C(O)CCN2c2nc(C)cc(C(F)(F)F)c2C#N)c1", "rule not met"],
  ["Nc1ccn(C2OC(CO)C(O)C2(F)F)c(=O)n1 (stereo not given) + Nc1ccc(C#CCN(C(=O)Cc2ncc(C(F)(F)F)cc2C(F)(F)F)c2ccc(F)cc2)nn1", "rule met"],
  ["CCCS(=O)(=O)Nc1ccc(F)c(C(=O)c2c[nH]c3ncc(-c4ccc(Cl)cc4)cc23)c1F + COC1C(OC(N)=O)C(O)C(Oc2ccc3c(O)c(NC(=O)c4ccc(O)c(CC=C(C)C)c4)c(=O)oc3c2C)OC1(C)C", "rule not met"],
  ["CC1COCCN1c1cc(C2(S(C)(=N)=O)CC2)nc(-c2ccnc3[nH]ccc23)n1 (stereo not given) + Cc1cccc(N(C)C(=O)C2C(O)CCN2c2nc(C)cc(C(F)(F)F)c2C#N)c1", "rule not met"],
  ["COc1cccc(OCCCN)c1-c1cc(Nc2cnc(C#N)cn2)n[nH]1 + Cc1cccc(N(C)C(=O)C2C(O)CCN2c2nc(C)cc(C(F)(F)F)c2C#N)c1", "rule met"]
]}

input: Report whether reported viability, T/C is lower than 90% (strictly) for COc1cc(C2c3cc4c(cc3C(OC3OC5COC(C)OC5C(O)C3O)C3COC(=O)C23)OCO4)cc(OC)c1O (stereo not given) + Cc1cccc(N(C)C(=O)C2C(O)CCN2c2nc(C)cc(C(F)(F)F)c2C#N)c1
output: rule met

input: What do we get for C#Cc1c(F)ccc2cc(O)cc(-c3ncc4c(N5CC6CCC(C5)N6)nc(OCC56CCCN5CC(F)C6)nc4c3F)c12 (stereo not given) + Nc1ccc(C#CCN(C(=O)Cc2ncc(C(F)(F)F)cc2C(F)(F)F)c2ccc(F)cc2)nn1 ?
output: rule not met

input: What do we get for COc1cccc2c1C(=O)c1c(O)c3c(c(O)c1C2=O)CC(O)(C(=O)CO)CC3OC1CC(N)C(O)C(C)O1 (stereo not given) + Cc1cccc(N(C)C(=O)C2C(O)CCN2c2nc(C)cc(C(F)(F)F)c2C#N)c1 ?
output: rule met

input: What do we get for CC(C)n1c(=O)n(C)c2cnc3cc(F)c(-c4ccc(OCCCN5CCCCC5)nc4)cc3c21 + COC1C(OC(N)=O)C(O)C(Oc2ccc3c(O)c(NC(=O)c4ccc(O)c(CC=C(C)C)c4)c(=O)oc3c2C)OC1(C)C ?
output: rule not met
